- Test system: PCTK2
- Construct: gene CDK17
- conditions used: concentration: 1 μM, replicates: in singlicate; n = 1;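 also: KINOMEscan kinase panel screen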

>  <compound>
Nc1nc(-c2ccccn2)c(-c2ccnc3ccccc23)s1

>  <%Inh, %>
18

$$$$
>  <compound>
O=C(Nc1ccccc1F)NC1CCN(c2ccnc(Nc3ccc(F)cc3)n2)C1 (centres unmarked)

>  <%Inh, %>
0

$$$$
>  <compound>
Clc1cc(Nc2ncnc3cc[nH]c23)ccc1OCc1ccccn1

>  <%Inh, %>
19

$$$$
>  <compound>
CS(=O)(=O)CCNCc1ccc(-c2ccc3ncnc(Nc4ccc(OCc5ccccc5)c(Cl)c4)c3c2)o1.Cl

>  <%Inh, %>
0

$$$$
>  <compound>
Cn1cc(-c2ccc3c(c2)CCN3C(=O)Cc2cccc(C(F)(F)F)c2)c2c(N)ncnc21

>  <%Inh, %>
0

$$$$

----------
- Test system: NEK4
- conditions used: concentration: 1 μM, replicates: in singlicate; n = 1

>  <structure>
COc1ccc(NC(=O)c2ccc(-c3cc(-c4nnc(C)o4)ccc3C)cc2)cc1

>  <%Inh>
19%

$$$$
>  <structure>
Cl.Cn1ccc(-c2cccc(Nc3ccnc4cc(-c5nccs5)ccc34)c2)n1

>  <%Inh>
0%

$$$$
>  <structure>
c1ccc(-c2ccc3c(-c4ccnc(Nc5ccc6c(c5)OCCO6)n4)cnn3n2)cc1

>  <%Inh>
4%

$$$$
>  <structure>
CCn1c(-c2ccncc2)nc2cnccc21

>  <%Inh>
8%

$$$$
>  <structure>
O=C(CCO)NCCn1ccc2ncnc(Nc3ccc(Oc4cccc(C(F)(F)F)c4)c(Cl)c3)c21

>  <%Inh>
0%

$$$$
>  <structure>
O=C(Nc1n[nH]c2nc(-c3ccco3)c(Br)cc12)c1ccc(CN2CCCC2)cc1.O=C(O)[C@H](O)[C@@H](O)C(=O)O

>  <%Inh>
0%

$$$$

----------
- Test system: AXL
- conditions used: concentration: 1 μM, replicates: in singlicate; n = 1

>  <compound>
C[C@H]1CC[C@@H](C(=O)Nc2ccccc2)CN1c1cc(-c2ccc3c(N)n[nH]c3c2)nc(N)n1 [GSK2283293]

>  <assayed system>
AXL

>  <unit name>
%

>  <%Inh>
0

$$$$
>  <compound>
Nc1nc(-c2ccc3c(N)n[nH]c3c2)cc(N2CCCCC2)n1 [GSK2228768]

>  <assayed system>
AXL

>  <unit name>
%

>  <%Inh>
0

$$$$
>  <compound>
Nc1nc(-c2ccc3c(N)n[nH]c3c2)cc(N2CCC[C@@H](C(=O)Nc3ccccc3)C2)n1.O=C(O)C(F)(F)F.O=C(O)C(F)(F)F [GSK2288359]

>  <assayed system>
AXL

>  <unit name>
%

>  <%Inh>
0

$$$$
>  <compound>
COc1ccc(-c2oc3ncnc(N)c3c2-c2ccc(OC)cc2)cc1 [SB-589132]

>  <assayed system>
AXL

>  <unit name>
%

>  <%Inh>
13

$$$$
>  <compound>
Fc1cccc(COc2ccc(Nc3ncnc4nn5ccccc5c34)cc2Cl)c1 [GW689066]

>  <assayed system>
AXL

>  <unit name>
%

>  <%Inh>
0

$$$$
>  <compound>
CC(C)(C)OC(=O)NC1CCCN(c2cc(-c3ccc4c(N)n[nH]c4c3)nc(N)n2)C1 (stereo not shown) [GSK2286096]

>  <assayed system>
AXL

>  <unit name>
%

>  <%Inh>
5

$$$$
>  <compound>
FC(F)(F)c1ccc(-c2nn3ncccc3c2-c2ccnc(Nc3cccc(C(F)(F)F)c3)n2)cc1 [GW828205]

>  <assayed system>
AXL

>  <unit name>
%

>  <%Inh>
0

$$$$
>  <compound>
FC(F)(F)c1ccc(-c2cc(-c3c[nH]nc3-c3ccccn3)ccn2)cc1 [GW599550]

>  <assayed system>
AXL

>  <unit name>
%

>  <%Inh>
20

$$$$
>  <compound>
NC(=O)c1sc(-n2cnc3ccccc32)cc1OCc1ccccc1F [GSK1024306]

>  <assayed system>
AXL

>  <unit name>
%

>  <%Inh>
0

$$$$
>  <compound>
CCC(CC)(CC)n1cnc2c(N)ncnc21 [SKF-97620]

>  <assayed system>
AXL

>  <unit name>
%

>  <%Inh>
0

$$$$
>  <compound>
CCc1nc(-c2cccc(C)c2)c(-c2ccnc(NC(=O)c3ccccc3)c2)s1

>  <assayed system>
AXL

>  <unit name>
%

>  <%Inh>
0

$$$$
>  <compound>
O=C(c1ccc(-c2cc(-c3c[nH]nc3-c3ccccn3)ccn2)cc1)N1CCCC1 [GW792479]

>  <assayed system>
AXL

>  <unit name>
%

>  <%Inh>
0

$$$$
>  <compound>
Clc1cc(Nc2ncnc3cc[nH]c23)ccc1OCc1ccccn1

>  <assayed system>
AXL

>  <unit name>
%

>  <%Inh>
19

$$$$

----------
- Tested on: MAP3K2
- conditions used: concentration: 1 μM, replicates: in singlicate; n = 1
Measured %Inh values are reported for all entries that follow.
experimental endpoint: %Inh (%)

>  <molecule>
OCCOCCn1ccc2ncnc(Nc3ccc(Oc4cccc(Cl)c4)c(Cl)c3)c21

>  <assayed system>
MAP3K2

>  <experimental endpoint>
%Inh

>  <unit name>
%

>  <numeric result>
0

$$$$
>  <molecule>
Nc1nc(-c2ccc3c(N)n[nH]c3c2)cc(N2CCCCC2)n1 [GSK2228768]

>  <assayed system>
MAP3K2

>  <experimental endpoint>
%Inh

>  <unit name>
%

>  <numeric result>
0

$$$$
>  <molecule>
Cl.c1ccc(Cn2ncc3cc(Nc4ncnc5ccccc45)ccc32)cc1 [GW273749]

>  <assayed system>
MAP3K2

>  <experimental endpoint>
%Inh

>  <unit name>
%

>  <numeric result>
0

$$$$
>  <molecule>
COc1cc2ncnc(Nc3ccc(OCc4ccccc4Br)c(Cl)c3)c2cc1OC.Cl [GI261590]

>  <assayed system>
MAP3K2

>  <experimental endpoint>
%Inh

>  <unit name>
%

>  <numeric result>
0

$$$$
>  <molecule>
CC(=O)Nc1n[nH]c2ncc(-c3ccccc3)cc12 [SB-548492]

>  <assayed system>
MAP3K2

>  <experimental endpoint>
%Inh

>  <unit name>
%

>  <numeric result>
16

$$$$
>  <molecule>
CCCc1ccc(S(=O)(=O)NC2CCN(c3ccnc(Nc4ccc(OC)cc4)n3)C2)cc1 (centres unmarked) [GSK1379737]

>  <assayed system>
MAP3K2

>  <experimental endpoint>
%Inh

>  <unit name>
%

>  <numeric result>
1

$$$$
>  <molecule>
COc1ccc(Nc2nccc(N3CCC(NC(=O)c4cccc(NC(C)=O)c4)C3)n2)cc1 (centres unmarked) [GSK1379732]

>  <assayed system>
MAP3K2

>  <experimental endpoint>
%Inh

>  <unit name>
%

>  <numeric result>
0

$$$$
>  <molecule>
Clc1ccc(-c2cc(-c3c[nH]nc3-c3ccccn3)ccn2)cc1 [GW681251]

>  <assayed system>
MAP3K2

>  <experimental endpoint>
%Inh

>  <unit name>
%

>  <numeric result>
3

$$$$
>  <molecule>
CN1CCC(n2cnc(-c3ccc(F)cc3)c2-c2ccnc(NC3CCNCC3)n2)CC1 [SB-229482]

>  <assayed system>
MAP3K2

>  <experimental endpoint>
%Inh

>  <unit name>
%

>  <numeric result>
0

$$$$
>  <molecule>
CCn1c(-c2ccncc2)nc2cnccc21 [SB-735216]

>  <assayed system>
MAP3K2

>  <experimental endpoint>
%Inh

>  <unit name>
%

>  <numeric result>
6

$$$$
>  <molecule>
Nc1n[nH]c2nnc(-c3ccccc3)cc12 [SB-517389]

>  <assayed system>
MAP3K2

>  <experimental endpoint>
%Inh

>  <unit name>
%

>  <numeric result>
5

$$$$
>  <molecule>
Fc1cccc(COc2ccc(Nc3ncnc4nn5ccccc5c34)cc2Cl)c1 [GW689066]

>  <assayed system>
MAP3K2

>  <experimental endpoint>
%Inh

>  <unit name>
%

>  <numeric result>
8

$$$$
>  <molecule>
O=C(NCCCN1CCCC1=O)c1cnc(NCc2cc(Cl)ccc2Cl)nc1NC1CCNCC1

>  <assayed system>
MAP3K2

>  <experimental endpoint>
%Inh

>  <unit name>
%

>  <numeric result>
79

$$$$
>  <molecule>
Nc1nccc2scc(-c3ccc4c(c3)CCN4C(=O)Cc3cc(F)ccc3F)c12 [GSK2587663]

>  <assayed system>
MAP3K2

>  <experimental endpoint>
%Inh

>  <unit name>
%

>  <numeric result>
23

$$$$

----------
- Test system: CDK3
- conditions used: concentration: 1 μM, replicates: in singlicate; n = 1
Measured %Inh values are reported for all entries that follow.
experimental endpoint: %Inh (%)

>  <compound>
CC(C)(C)c1ccc(-n2cnc3c(N)ncnc32)cc1 [SKF-97263]

>  <numeric result>
3

$$$$
>  <compound>
Cl.c1ccc(Cn2ccc3cc(Nc4ncnc5ccccc45)ccc32)cc1 [GW275568]

>  <numeric result>
16

$$$$
>  <compound>
CC(=O)Nc1n[nH]c2ncc(-c3ccccc3)cc12 [SB-548492]

>  <numeric result>
12

$$$$
>  <compound>
O=C(Nc1ccccc1F)NC1CCN(c2ccnc(Nc3ccc(F)cc3)n2)C1 (centres unmarked) [GSK1379722]

>  <numeric result>
16

$$$$
>  <compound>
Oc1ccc2ncnc(Nc3ccc(OCc4ccccc4)cc3)c2c1 [GI262866]

>  <numeric result>
22

$$$$
